assay: CIMA assay, cell viability, CCD1079SK; details: human, CCD1079SK fibroblasts (noncancerous, proliferating), Average cell viability, CCD, 10 ug/mL
Consider the following compounds; for each one, report its viability at 72 h, 10 ug/mL.
Express it in %; write the number only.

Lab note: measured viability at 72 h, 10 ug/mL of CC/C=C\C/C=C\C/C=C\C/C=C\C/C=C\CCCC(=O)OCC(COC1OC(CO)C(O)C(O)C1O)OC(=O)CCCCCCCCCCCCCCC (stereo not drawn) was 99

Lab note: measured viability at 72 h, 10 ug/mL of CC/C=C\C/C=C\C/C=C\C/C=C\C/C=C\CCCC(=O)OCC(O)COC1OC(CO)C(O)C(O)C1O (stereo not drawn) was 99

Lab note: measured viability at 72 h, 10 ug/mL of CC/C=C\C/C=C\C/C=C\C/C=C\C/C=C\CCCC(=O)OCC(COC1OC(CO)C(O)C(O)C1O)OC(=O)CCC/C=C\C/C=C\C/C=C\C/C=C\C/C=C\CC (stereo not drawn) was 97

---

system: CCD1079SK (fibroblast, noncancerous but proliferating); test: CIMA assay, cell viability, CCD1079SK; settings: CCD; 100 ug/mL
Consider the following molecules; for each one, report its Fold change in viability AVG.

Lab note: measured Fold change in viability AVG of CC/C=C\C/C=C\C/C=C\C/C=C\C/C=C\CCCC(=O)OCC(COC1OC(CO)C(O)C(O)C1O)OC(=O)CCC/C=C\C/C=C\C/C=C\C/C=C\C/C=C\CC (stereo not drawn) was 0.19

Lab note: measured Fold change in viability AVG of CCCCCCCCCCCCCCCC(=O)OCC(COC1OC(CO)C(O)C(O)C1O)OC(=O)CCCCCCCCCCCCC (stereo not drawn) was 0.21

Lab note: measured Fold change in viability AVG of CCCCCCCCCCCCCCCC(=O)OCC(O)CO (stereo not drawn) was 0.79

---

tested on: U373 (glioblastoma-astrocytoma); assay: CIMA assay, cell viability, U373; settings: U373; positive control SDS 250 ug/ml
quantity-name: Average cell viability (%)
Express it in %; write the number only.

Case CCCCCCCCCCCCOS(=O)(=O)[O-].[Na+] [SDS, reference compound] , U373 (glioblastoma-astrocytoma), Average cell viability recorded as 4

---

system: CCD1079SK (fibroblast, noncancerous but proliferating); assay: CIMA assay, cell viability, CCD1079SK; settings: CCD; positive control SDS 250 ug/ml
quantity-name: Average cell viability
Answer shape: numeric part, then the unit.

Case CCCCCCCCCCCCOS(=O)(=O)[O-].[Na+] [SDS, reference compound] , CCD1079SK (fibroblast, noncancerous but proliferating), Average cell viability recorded as 5%

---

Consider the following molecules; for each one, report its Fold change in viability AVG.
tested on: A549 (lung carcinoma); experiment: CIMA assay (colorimetric indicator of metabolic activity), cell viability, A549; details: A549; 10 ug/mL
Please state the value as a number alone, without comment.

Lab note: measured Fold change in viability AVG of CCCCC/C=C\C/C=C\CCCCCCCC(=O)O [Compound 20, linoleic acid] was 1.12

Lab note: measured Fold change in viability AVG of CCCCCCCCCCCCCCCC(=O)OCC(COC1OC(CO)C(O)C(O)C1O)OC(=O)CCCCCCCCCCCCC (stereo not drawn) [Compound 16, MGDG C16:0/C14:0] was 1.16

Lab note: measured Fold change in viability AVG of CC/C=C\C/C=C\C/C=C\C/C=C\C/C=C\CCCC(=O)OCC(O)COC1OC(CO)C(O)C(O)C1O (stereo not drawn) [Compound 13, lyso-MGDG C20:5] was 0.64

Lab note: measured Fold change in viability AVG of CC/C=C\C/C=C\C/C=C\CCCCCCCC(=O)O [Compound 19, α-linolenic acid] was 1.16

Lab note: measured Fold change in viability AVG of CC/C=C\C/C=C\C/C=C\C/C=C\C/C=C\CCCC(=O)OCC(COC1OC(CO)C(O)C(O)C1O)OC(=O)CCC/C=C\C/C=C\C/C=C\C/C=C\C/C=C\CC (stereo not drawn) [Compound 7, MGDG C20:5/C20:5] was 0.65

Lab note: measured Fold change in viability AVG of CC/C=C\C/C=C\C/C=C\C/C=C\CCC(=O)OC(COC(=O)CCCCCCC/C=C\C/C=C\C/C=C\CC)COC1OC(CO)C(O)C(O)C1O (stereo not drawn) [Compound 14, MGDG C18:3/C16:4] was 1.18
